// reported pIC50 per item
Target: purified human DHFR (Homo sapiens)
Construct: made in house; host or cells: E. coli BL21 (DE3) T1R pRARE2, pNIC-Bsa4 plasmid
Sequence (P00374 whole entry): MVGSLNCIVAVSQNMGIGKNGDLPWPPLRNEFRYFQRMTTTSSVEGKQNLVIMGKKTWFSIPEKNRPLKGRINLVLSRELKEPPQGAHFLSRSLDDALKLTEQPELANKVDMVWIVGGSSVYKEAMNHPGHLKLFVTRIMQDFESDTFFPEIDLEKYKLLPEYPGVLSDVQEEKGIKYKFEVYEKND
Test: DHFR enzymatic inhibition assay (NADPH absorbance at 340 nm)
Assay type: biochemical
Settings: 200 nM DHFR, 137.5 μM DHF, 125 μM NADPH; n = 2; read-out: IC50
Description: Working stocks of each inhibitor were created so that the final concentration of DMSO in each reaction was 2% in a final reaction volume of 100 μL. […] Reactions were prepared on ice in 384-well plates. […] Consumption of NADPH by measuring absorbance at 340 nm was used to monitor the progress of the reaction. Readings were taken every 5 min for 1 h at 37 °C using a Synergy MX microplate reader (BioTek). Percent inhibition relative to the no-inhibitor control was determined using Equation (1). […]
Give only the number. pIC50 is defined as minus log10 of concentration in molar units.

Completed entries (count: 4):
{"Compound": "CC1(C)N=C(N)N=C(N)N1c1ccc(CCCCc2ccccc2)c(Cl)c1 [compound 128184]", "pIC50": 6.14}
{"Compound": "CCc1nc(N)nc(N)c1-c1ccc(Cl)c(Cl)c1 [compound 3062, etoprine]", "pIC50": 5.07}
{"Compound": "CC1(C)N=C(N)N=C(N)N1c1ccc(CCCCc2ccc(S(=O)(=O)F)cc2)cc1 [compound 123032]", "pIC50": 5.93}
{"Compound": "CC1(C)N=C(N)N=C(N)N1c1ccc(CCCCc2ccc(S(=O)(=O)F)cc2)c(Cl)c1 [compound 127159]", "pIC50": 6.12}

Would you kindly look at the next entry?
# pIC50 lookup, item CC1(C)N=C(N)N=C(N)N1c1ccc(CCCCc2ccccc2)cc1 [compound 127153]
6.03

====

Test system: DHFR in MDA-MB-468 lysates
Construct: reactions containing 55 μg MDA-MB-468 lysate; endogenous in cells; host or cells: MDA-MB-468
Assay: Lysate cellular thermal shift assay (CETSA) for DHFR
Format: binding, Human
Settings: 10 μM, MDA-MB-468 lysate, 45 °C for 3 min; DMSO at 37 °C = 100%
Observation Type: Normalized Band Density (%) of soluble DHFR
Report the value in % with no unit label.

{"Molecule": "CCc1nc(N)nc(N)c1-c1ccc(Cl)c(Cl)c1 [compound 3062, etoprine]", "Study Target": "DHFR in MDA-MB-468 lysates", "Measured Value": 83.56}

Requested read-out: Normalized Band Density (%) of soluble DHFR. Entry: CC1(C)N=C(N)N=C(N)N1c1ccc(CCCCc2ccc(S(=O)(=O)F)cc2)c(Cl)c1 [compound 127159]
99.96

====

List of Relative Viability (%) – Inhibitor Alone values.
Test system: MDA-MB-231 cells
Experiment: Resazurin viability assay with or without folinic acid, MDA-MB-231
Format: cell-based, Human
Details: MDA-MB-231, 10 μM, 72 h, relative to DMSO

Here are 3 compounds together with their reported answers.
{"Compound": "CCS(=O)(=O)O.CN(C)C(=O)c1cccc(COc2ccc(N3C(N)=NC(N)=NC3(C)C)cc2Cl)c1 [compound 139105, triazinate]", "Observation Type": "Relative Viability (%) – Inhibitor Alone", "Measured Value": "46.35 ± 9.0%"}
{"Compound": "CC1(C)N=C(N)N=C(N)N1c1ccc(CCCCc2ccc(S(=O)(=O)F)cc2)c(Cl)c1", "Observation Type": "Relative Viability (%) – Inhibitor Alone", "Measured Value": "50.08 ± 8.8%"}
{"Compound": "CC1(C)N=C(N)N=C(N)N1c1ccc(CCCCc2ccccc2)cc1", "Observation Type": "Relative Viability (%) – Inhibitor Alone", "Measured Value": "45.99 ± 10.6%"}

Could you share which Relative Viability (%) – Inhibitor Alone value was measured for CC1(C)N=C(N)N=C(N)N1c1ccc(CCCCc2ccc(S(=O)(=O)F)cc2)cc1 ?
57.55 ± 3.1%

For the compound shown here, CC1(C)N=C(N)N=C(N)N1c1ccc(CCCCc2ccccc2)c(Cl)c1 , give the reported Relative Viability (%) – Inhibitor Alone.
42.94 ± 9.7%

Given the entry CCc1nc(N)nc(N)c1-c1ccc(Cl)c(Cl)c1 , report its measured Relative Viability (%) – Inhibitor Alone.
52.76 ± 12.1%
